- assayed.target: T1, human CEACAM5 expressed on the surface of tumor cells (human, UniProt P06731 35-685)
- T1 construct: Endogenous CEACAM5 of human tumor cells; also called hCEACAM5 on MKN45 cells; CEACAM5 on CR-IGR-034P primary colon tumor cells
- T1 sequence: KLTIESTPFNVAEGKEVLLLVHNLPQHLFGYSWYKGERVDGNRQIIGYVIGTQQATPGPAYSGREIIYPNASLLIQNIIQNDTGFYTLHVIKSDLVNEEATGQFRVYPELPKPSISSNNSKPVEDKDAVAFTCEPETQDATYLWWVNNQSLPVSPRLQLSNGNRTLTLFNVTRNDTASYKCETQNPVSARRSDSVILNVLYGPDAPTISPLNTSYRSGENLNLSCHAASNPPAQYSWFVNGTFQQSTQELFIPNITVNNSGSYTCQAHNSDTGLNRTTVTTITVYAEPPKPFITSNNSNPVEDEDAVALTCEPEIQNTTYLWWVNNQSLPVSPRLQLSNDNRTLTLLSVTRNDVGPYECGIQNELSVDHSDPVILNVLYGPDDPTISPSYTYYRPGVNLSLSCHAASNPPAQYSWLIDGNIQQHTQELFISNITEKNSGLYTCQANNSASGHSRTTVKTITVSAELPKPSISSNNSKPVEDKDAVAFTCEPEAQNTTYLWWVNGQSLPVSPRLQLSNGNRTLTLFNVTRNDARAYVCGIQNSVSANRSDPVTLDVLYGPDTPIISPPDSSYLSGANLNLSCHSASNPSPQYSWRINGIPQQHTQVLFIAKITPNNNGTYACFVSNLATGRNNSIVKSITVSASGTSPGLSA
- assay.notes: apparent KD, flow cytometry on CR-IGR-034P primary colon tumor cells
- Procedure: Advanced human primary colon tumor CR-IGR-034P (Julien et al., Clin Cancer Res Oct. 1, 2012 18:5314-5328) was obtained from Patient-derived xenograft in mice. […] The antibody binding was evaluated after centrifugation and resuspension of cells by adding 200 pliwell PBS 1% BSA and read using Guava® easyCyte™ 8HT Flow Cytometry System. […]
Please respond with 1 (yes) when measured Kd is strictly beneath 0.5 nM, and with 0 (no) in all other cases.

binder	label
antibody MAb4 (antibody, IgG1, V domains shown, Murine monoclonal from hybridoma, IgG1, kappa) VH: EVQLVESGGGLVKPGGSLKLSCAASGFTFSSYDMSWVRQTPEKRLEWVAFISSYGGRTYYADTVKGRFTISRDNAKNTLYLQMSSLKSEDTAMFYCAAHYFGTSGPFAYWGQGTLVTVSA VL: DIQMTQSPASLSASVGETVTITCRASENIYSYFAWYQQKQGKSPQLLVYNAKILAEGVPSRFSGSGSGTQFSLKINSLQPEDFGTYYCQHHYGIPFTFGSGTKLELK	1 (yes)
antibody MAb2 (antibody, mouse IgG1, V domains shown, Murine IgG1, kappa; Rows are tied to the label as printed) VH: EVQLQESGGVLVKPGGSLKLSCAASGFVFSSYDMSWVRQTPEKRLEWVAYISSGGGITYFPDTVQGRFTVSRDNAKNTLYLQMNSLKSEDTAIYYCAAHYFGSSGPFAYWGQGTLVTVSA VL: DIQMTQSPASLSASVGETVTITCRASENIFSYLAWYQQKQGKSPQLLVYNTKTLAEGVPSRFSGSGSGTQFSLKINSLQPEDFGSYYCQHHYGTPFTFGSGTKLEIK	1 (yes)
antibody MAb3 (antibody, IgG1, V domains shown, Murine monoclonal from hybridoma, IgG1, kappa) VH: EVKLVESGGGLVKPGGSLTLPCAASGFTFSRYAMSWVRQTPEKRLEWVASISSGGDTYYPDSVKGRFTVSRDNARNILFLQMSSLRSEDTGMYYCARVNYYDSSFLDWWGQGTTLTVSS VL: DIVMTQSQRFMSTLEGDRVSVTCKASQNVGTNVAWYQQKPGQSPKALIYSASYRYSGVPDRFTGSGSGTDFTLTISNVQSEDLAEYFCQQYNNYPLYTFGGGTKLEIK	0 (no)
antibody MAb1 (antibody, IgG1, V domains shown) VH: EVMLVESGGGLVKPGGSLKLSCAASGFTFSSYAMSWVRQTPEKRLEWVATISSGGSYIYYLDSVKGRFTISRDNAKNTLYLQMSSLRSEDTAMYYCARPAYYGNPAMDYWGQGTSVTVSS VL: DILMTQSQKFMSTSVGDRVSVTCKASQNVGTNVAWYQQKPGQSPKPLIYSASYRYSGVPDRFTGSGSGTDFTLTISNVQSEDLAEYFCQQYNSYPLYTFGGGTKLEIK	0 (no)
